Below, Kd values reported for Thyroid hormone receptor beta (Homo sapiens) across several publications.
Decision: Kd beneath 90 nM gives met; Kd meeting or exceeding 90 nM gives not met.

# COMPOUND, QUALITATIVE_LABEL
data = [
    ("Cc1cc(C[C@H](N)C(=O)O)cc(C)c1Oc1ccc(O)c(C(C)C)c1", "met"),
    ("Cc1cc(Oc2c(I)cc(CC3NC(=O)NC3=O)cc2I)ccc1O (centres undefined)", "met"),
    ("Cc1cc(C[C@H](N)C(=O)O)cc(C)c1Cc1ccc(O)c(C(C)C)c1", "met"),
    ("O=C1NC(=O)C(Cc2cc(I)c(Oc3ccc(O)c(I)c3)c(I)c2)N1 (centres undefined)", "met"),
    ("CCCCN(C)C(=O)CCCCCC/C=C\\CCC(c1ccc(O)c(C(C)C)c1)c1c(C)cc(OCC(=O)O)cc1C (centres undefined)", "not met"),
    ("O=C1NC(=O)C(Cc2cc(I)c(Oc3ccc(O)cc3)c(I)c2)N1 (centres undefined)", "not met"),
    ("CC(C)c1cc(Oc2c(Br)cc(CC3NC(=O)NC3=O)cc2Br)ccc1O (centres undefined)", "met"),
    ("CCCCN(C)C(=O)CCCCCCCCCCC(c1ccc(O)c(C(C)C)c1)c1c(C)cc(OCC(=O)O)cc1C (centres undefined)", "not met"),
]
